Biological target: Cytochrome P450 3A4 (Homo sapiens) (UniProt P08684)
Sequence (P08684 whole entry, looked up): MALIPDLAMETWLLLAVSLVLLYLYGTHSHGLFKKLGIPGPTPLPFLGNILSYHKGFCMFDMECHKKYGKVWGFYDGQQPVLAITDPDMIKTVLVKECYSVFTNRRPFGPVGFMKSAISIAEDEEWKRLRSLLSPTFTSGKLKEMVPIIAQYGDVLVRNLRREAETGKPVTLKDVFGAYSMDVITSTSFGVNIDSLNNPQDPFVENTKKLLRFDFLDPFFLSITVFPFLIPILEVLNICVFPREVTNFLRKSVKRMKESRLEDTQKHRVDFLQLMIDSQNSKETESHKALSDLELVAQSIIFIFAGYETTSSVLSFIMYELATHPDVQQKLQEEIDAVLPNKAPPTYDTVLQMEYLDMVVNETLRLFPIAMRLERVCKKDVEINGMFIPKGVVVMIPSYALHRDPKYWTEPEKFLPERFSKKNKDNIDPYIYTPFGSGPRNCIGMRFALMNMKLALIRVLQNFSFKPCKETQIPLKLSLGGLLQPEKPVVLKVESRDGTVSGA
Test: Cytochrome panel assay with activity outcomes
Details: recombinant CYP, pro-luciferin dealkylation, luminescence, p450-cyp3a4; series mostly up to 57.1 µM
Hit rate of the full screen: of about 16,000 compounds, about 5,100 (32%) were called active. Not shown: some 25% with an inconclusive outcome. The list shows a part of the results.
metric_name: AC50

Use these answered entries as a reference point.
molecule	target_entity	AC50
CCOC(=O)C1=C(CSc2nc3ccccc3s2)NC(=O)NC1c1cccc([N+](=O)[O-])c1 (stereo unspecified)	Cytochrome P450 3A4 (Homo sapiens) (UniProt P08684)	6.31 µM (active)
COc1cccc(-c2cc(C(F)(F)F)nc(N3CCN(c4ccccc4)CC3)n2)c1	Cytochrome P450 3A4 (Homo sapiens) (UniProt P08684)	inactive
COc1ccc2oc(-c3ccc(C)c(NC(=O)c4ccc(N5CCOCC5)c([N+](=O)[O-])c4)c3)nc2c1	Cytochrome P450 3A4 (Homo sapiens) (UniProt P08684)	6.31 µM (active)
COCCNc1cc(-c2ccccc2CN(C)C)ncn1	Cytochrome P450 3A4 (Homo sapiens) (UniProt P08684)	inactive
COc1ccc(CNc2ncncc2-c2ccccc2CN(C)C)c(OC)c1	Cytochrome P450 3A4 (Homo sapiens) (UniProt P08684)	0.398 µM (active)

Query block: If you can, please state the reported AC50 value of "Cc1ccc(-c2nc3ccccc3o2)cc1NC(=O)Cc1cccs1" .
Result block: inactive

Query block: Data request, read-out AC50, for "C[C@H](CO)NC(=O)[C@@H]1C[C@H]1[C@@H](NP(=O)(c1ccccc1)c1ccccc1)c1ccccc1"
Result block: 12.6 µM (active)

Query block: Give its AC50 value. Item: "O=[N+]([O-])c1ccc(-c2cnc(SCc3ccccc3Cl)[nH]2)cc1"
Result block: 14.1 µM (active)

----------
Target: Cytochrome P450 3A4 (Homo sapiens) (UniProt P08684)
Experiment: Cytochrome panel assay with activity outcomes; on activity, negative = inhibition: on the % scale 0 is the no-effect control and ±100 the full control effect
Conditions: recombinant CYP, pro-luciferin dealkylation, luminescence, p450-cyp3a4; series mostly up to 57.1 µM
About 5,100 (32%) of roughly 16,000 compounds were called active. Not shown: some 25% with an inconclusive outcome. This is one part of the list.
metric_name: activity, negative = inhibition

These solved cases illustrate the format of a correct answer.
compound	activity, negative = inhibition
O=S1(=O)OC(c2ccc(O)cc2)(c2ccc(O)cc2)c2ccccc21	-11.8% [at 11.4 µM] (inactive)
Clc1ccccc1NN(Cc1ccccn1)c1ccccc1Cl	-2.68% [at 11.4 µM] (inactive)
COC(=O)CSc1nc(C)cc(C(F)(F)F)c1C#N	-14.9% [at 2.29 µM] (inactive)
CCC[C@H](Sc1nc(N)nc2nc[nH]c12)C(=O)O	-4.34% [at 11.4 µM] (inactive)

Query block: What value of activity, negative = inhibition has been recorded for this entry: "Cc1cc(C)c(C#N)c(SCC(=O)C(C)(C)C)n1"
Result block: -0.356% [at 2.29 µM] (inactive)

Query block: Find the recorded activity, negative = inhibition belonging to "CC(C)[C@H](Sc1nc(N)nc2nc[nH]c12)C(=O)O" and report it.
Result block: -2.83% [at 11.4 µM] (inactive)

Query block: # query: activity, negative = inhibition of entry "C[C@H]1O[C@@H](CC(=O)O)Cc2c1c(O)c1c(O)cc(-c3cc(=O)c4c(=O)c5c(c(=O)c=4c3=O)C[C@H](CC(=O)O)O[C@@H]5C)c(O)c1c2O"
Result block: -6.62% [at 11.4 µM] (inactive)

Query block: Param item = Nc1nc(N)c2[nH]cnc2n1 (tested in a mixture with another compound) ; retrieve measured activity, negative = inhibition.
Result block: -3.42% [at 11.4 µM] (inactive)
